Target: T1, recombinant human PD-L2 (human PD-L2 antigen) (human, UniProt Q9BQ51 20-219, limits assumed)
T1 construct: The Biacore analyte and the ELISA antigen are only called human PD-L2 antigen / recombinant hPD-L2; Whole entry named; also called hPD-L2; recombinant hPD-L2
T1 sequence (looked up): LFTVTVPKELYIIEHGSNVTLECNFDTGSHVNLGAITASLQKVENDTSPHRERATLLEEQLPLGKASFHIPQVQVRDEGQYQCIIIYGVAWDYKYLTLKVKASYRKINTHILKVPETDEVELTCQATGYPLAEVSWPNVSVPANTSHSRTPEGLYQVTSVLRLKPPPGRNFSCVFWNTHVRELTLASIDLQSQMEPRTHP
Assay: SPR (Biacore 8K), single cycle kinetics, antibody in culture supernatant, human PD-L2 antigen
Method: Table 2: Single cycle kinetic parameters of chimeric (VH0/VK0) and humanized variants (tested as cell culture supernatants) binding to human PD-L2 antigen as determined using the Biacore 8K. […] The binding affinity of antibodies of the disclosed invention may be measured or determined by standard antibody-antigen assays. The relative KD was calculated by dividing the KD of the humanized variant by that of the VH0/VK0 assayed in the same experiment.
In this section we review reported Relative KD (KD of variant / KD of VH0/VK0) values for a set of binders.
Readout type: Relative KD (KD of variant / KD of VH0/VK0)

[[record]]
binder = "VH6/VK2 (antibody, V domains shown, hIgG1 backbone, CHO expressed) VH: QVQLVQSGAEVKKPGSSVKVSCKASGYSFSNYFIEWVKQPPGKGLEWIGLNIPGSGGSNYAEKFKGRVTITADKSTSTAYMELSSLRSEDTAVYYCARRRLPPDWYFDVWGQGTTVTVSS VL: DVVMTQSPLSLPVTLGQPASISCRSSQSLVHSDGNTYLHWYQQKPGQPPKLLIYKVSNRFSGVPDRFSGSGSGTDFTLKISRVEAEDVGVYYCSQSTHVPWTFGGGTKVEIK"
measured_result = 1.64

[[record]]
binder = "VH7/VK2 (antibody, V domains shown, hIgG1 backbone, CHO expressed) VH: QVQLVQSGAELKKPGSSVKVSCKASGYAFSNYFIEWVKQPPGKGLEWIGLNIPGSGGSNYAEKFKGRATITADKSTSTAYMELSSLRSEDTAVYYCARRRLPPDWYFDVWGQGTTVTVSS VL: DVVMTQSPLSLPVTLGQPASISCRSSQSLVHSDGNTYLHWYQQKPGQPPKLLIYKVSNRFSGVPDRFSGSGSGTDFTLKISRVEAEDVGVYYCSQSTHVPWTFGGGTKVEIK"
measured_result = 1.46

[[record]]
binder = "VH0/VK1 (antibody, V domains shown, hIgG1 backbone, CHO expressed) VH: QVQLQQSGAELVRPGTSVKVSCKASGYAFSNYFIEWVKQRPGQGLEWIGLNIPGSGGSNYAEKFKGKATLTADKSSSTAYMQLSSLTSEDSAVYFCARRRLPPDWYFDVWGTGTTVTVSS VL: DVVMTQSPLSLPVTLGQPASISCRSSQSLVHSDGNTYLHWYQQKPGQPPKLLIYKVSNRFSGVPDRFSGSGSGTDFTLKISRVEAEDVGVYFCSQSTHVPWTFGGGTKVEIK"
measured_result = 1.06

[[record]]
binder = "VH7/VK1 (antibody, V domains shown, hIgG1 backbone, CHO expressed) VH: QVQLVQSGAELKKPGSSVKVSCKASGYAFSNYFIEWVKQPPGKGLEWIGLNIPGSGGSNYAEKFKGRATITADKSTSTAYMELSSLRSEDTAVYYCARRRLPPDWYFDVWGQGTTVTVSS VL: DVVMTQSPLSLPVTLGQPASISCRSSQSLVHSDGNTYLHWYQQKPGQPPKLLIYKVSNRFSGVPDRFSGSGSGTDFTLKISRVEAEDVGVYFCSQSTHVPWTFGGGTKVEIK"
measured_result = 1.39

[[record]]
binder = "VH1/VK1 (antibody, V domains shown, hIgG1 backbone, CHO expressed) VH: QVQLVQSGAELKKPGSSVKVSCKASGYAFSNYFIEWVKQPPGKGLEWIGLNIPGSGGSNYAEKFKGRATITADKSTSTAYMELSSLTSEDSAVYFCARRRLPPDWYFDVWGQGTTVTVSS VL: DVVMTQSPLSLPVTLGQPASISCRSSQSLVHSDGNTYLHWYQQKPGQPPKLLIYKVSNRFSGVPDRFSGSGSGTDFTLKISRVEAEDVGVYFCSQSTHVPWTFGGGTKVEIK"
measured_result = 1.33

[[record]]
binder = "VH1/VK0 (antibody, V domains shown, hIgG1 backbone, CHO expressed) VH: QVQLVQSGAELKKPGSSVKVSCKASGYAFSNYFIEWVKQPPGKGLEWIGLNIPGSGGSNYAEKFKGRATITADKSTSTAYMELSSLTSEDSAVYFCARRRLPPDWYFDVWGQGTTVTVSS VL: DVVMTQTPLSLPVSLGDQASISCRSSQSLVHSDGNTYLHWYLQKPGQSPKLLIYKVSNRFSGVPDRFSGSGSGTDFTLKISRVEAEDLGVYFCSQSTHVPWTFGGGTKLEIK"
measured_result = 1.19

[[record]]
binder = "VH4/VK2 (antibody, V domains shown, hIgG1 backbone, CHO expressed) VH: QVQLVQSGAEVKKPGSSVKVSCKASGYAFSNYFIEWVKQPPGKGLEWIGLNIPGSGGSNYAEKFKGRVTITADKSTSTAYMELSSLRSEDTAVYYCARRRLPPDWYFDVWGQGTTVTVSS VL: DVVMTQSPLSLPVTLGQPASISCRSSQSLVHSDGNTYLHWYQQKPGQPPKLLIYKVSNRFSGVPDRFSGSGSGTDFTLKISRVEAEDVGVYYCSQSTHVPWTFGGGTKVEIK"
measured_result = 1.66

[[record]]
binder = "VH8/VK2 (antibody, V domains shown, hIgG1 backbone, CHO expressed) VH: QVQLVQSGAEVKKPGSSVKVSCKASGYAFSNYFIEWVKQPPGKGLEWIGLNIPGSGGSNYAEKFKGRATITADKSTSTAYMELSSLRSEDTAVYYCARRRLPPDWYFDVWGQGTTVTVSS VL: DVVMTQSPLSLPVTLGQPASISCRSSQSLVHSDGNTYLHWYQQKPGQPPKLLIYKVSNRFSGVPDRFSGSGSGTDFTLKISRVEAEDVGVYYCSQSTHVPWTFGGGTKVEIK"
measured_result = 1.47

[[record]]
binder = "VH0/VK0 chimeric antibody (hIgG1 backbone) (antibody, V domains shown, Mouse variable regions on human IgG1 backbone, expressed in CHO cells; also called chimeric anti-PDL2 lead mAb VH0/VK0) VH: QVQLQQSGAELVRPGTSVKVSCKASGYAFSNYFIEWVKQRPGQGLEWIGLNIPGSGGSNYAEKFKGKATLTADKSSSTAYMQLSSLTSEDSAVYFCARRRLPPDWYFDVWGTGTTVTVSS VL: DVVMTQTPLSLPVSLGDQASISCRSSQSLVHSDGNTYLHWYLQKPGQSPKLLIYKVSNRFSGVPDRFSGSGSGTDFTLKISRVEAEDLGVYFCSQSTHVPWTFGGGTKLEIK"
measured_result = 1

[[record]]
binder = "VH3/VK3 (antibody, V domains shown, hIgG1 backbone, CHO expressed) VH: QVQLVQSGAEVKKPGSSVKVSCKASGYAFSNYFIEWVKQPPGKGLEWIGLNIPGSGGSNYAEKFKGRVTITADKSTSTAYMELSSLRSEDSAVYFCARRRLPPDWYFDVWGQGTTVTVSS VL: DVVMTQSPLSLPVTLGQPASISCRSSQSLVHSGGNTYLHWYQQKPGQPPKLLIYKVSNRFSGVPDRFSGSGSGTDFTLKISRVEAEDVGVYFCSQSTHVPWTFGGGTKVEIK"
measured_result = 8.77


All figures here come from patent US20250179187A1.
